Record form. Attribute: Km. Fill in for each entry.
# Test system: L-glutaminase of Bacillus amyloliquefaciens
# Construct: gene ggt; commercial enzyme preparation (Amano Enzyme China); called L-Gln amidohydrolase EC 3.5.1.2 with gamma-glutamyl transpeptidase activity
# test-name: transpeptidation, product by HPLC / UPLC-MS
# Format: biochemical
# condition-description: acceptor; fixed 25 mM D-Gln; apparent; read-out: Synthesis
// return numeric value only (unit: mM, not printed)

Specify reported Km for the compound shown: `N[C@@H](Cc1c[nH]c2ccccc12)C(=O)O`
32.5

Specify reported Km for the compound shown: `N[C@@H](Cc1ccccc1)C(=O)O`
46.3

Specify reported Km for the compound shown: `CC(C)[C@H](N)C(=O)O`
76.6

Specify reported Km for the compound shown: `CSCC[C@H](N)C(=O)O`
88.8

###

# System: L-glutaminase of Bacillus amyloliquefaciens
# Construct: gene ggt; commercial enzyme preparation (Amano Enzyme China); called L-Gln amidohydrolase EC 3.5.1.2 with gamma-glutamyl transpeptidase activity
# test-name: hydrolysis, HPLC / UPLC-MS
# Format: biochemical
# condition-description: hydrolysis reaction; apparent
# Excerpt: hydrolysis, HPLC / UPLC-MS on L-glutaminase of Bacillus amyloliquefaciens
Classification field: enter 1 for Km values not below 50 mM, -1 for values below it.

Check the entry CC(C)[C@H](NC(=O)CC[C@@H](N)C(=O)O)C(=O)O [γ-D-Glu-L-Val] : does Km equal or exceed 50 mM?
1

Check the entry N[C@H](CCC(=O)N[C@@H](Cc1ccccc1)C(=O)O)C(=O)O [γ-D-Glu-L-Phe] : does Km equal or exceed 50 mM?
1

Check the entry CSCC[C@H](NC(=O)CC[C@@H](N)C(=O)O)C(=O)O [γ-D-Glu-L-Met] : does Km equal or exceed 50 mM?
1

Check the entry CC(C)[C@H](NC(=O)CC[C@@H](NC(=O)CC[C@@H](N)C(=O)O)C(=O)O)C(=O)O [γ-[D-Glu]2-L-Val] : does Km equal or exceed 50 mM?
1

Check the entry N[C@H](CCC(=O)N[C@@H](Cc1c[nH]c2ccccc12)C(=O)O)C(=O)O [γ-D-Glu-L-Trp] : does Km equal or exceed 50 mM?
-1

Check the entry N[C@@H](CCC(=O)N[C@@H](Cc1c[nH]c2ccccc12)C(=O)O)C(=O)O [γ-L-Glu-L-Trp] : does Km equal or exceed 50 mM?
-1

The measurements presented in this section are drawn from paper PMC7684622.
